This collection of values is drawn from PubChem BioAssay AID179.

// values below are reported IC50
- Tested on: CEM cells HIV-1 protection, formazan growth assay
- protocol-details: NCI AIDS Antiviral Assay
- assay-setup: measured here: growth of uninfected CEM cells
Your answer should be a plain number; it is taken to be in µM.

INSERT INTO measurements (compound, system_under_test, assay_endpoint, value_reported) VALUES
  ('COc1ccc2c(c1)nc1n2C(N)=Nc2ccccc2S1', 'CEM cells HIV-1 protection, formazan growth assay', 'IC50', 11.5),
  ('c1ccc(N2N=C3N(c4ccccc4)C2N3c2ccccc2)cc1', 'CEM cells HIV-1 protection, formazan growth assay', 'IC50', 30.2),
  ('COc1ccc(CCN(C)C2CCC(C#N)(c3ccc(OC)c(OC)c3)CC2)cc1OC (configuration not stated)', 'CEM cells HIV-1 protection, formazan growth assay', 'IC50', 74.1);

-- ask What measured IC50 goes with COC(=O)/C(=N\NC(N)=O)C(C(=O)C=C(C)C)C(=O)C(=O)Nc1ccc(Cl)c(Cl)c1 (configuration not stated) ?
-- reply 457

-- ask For the compound shown here, CCC(Cc1ccccc1)C1=NC(C)(C)CC(C)O1 (configuration not stated) , give the reported IC50.
-- reply 79.4

-- ask Please give the measured IC50 for this compound: CC1=NN(c2ccccc2)C(=O)/C1=C\n1c(=S)[nH]c2ccccc21
-- reply 87.1

* * *

Reported values of EC50 for individual entries
- Test system: CEM cells HIV-1 protection, formazan growth assay
- protocol-details: NCI AIDS Antiviral Assay

Please review the entries below; each comes with its answer.
INSERT INTO measurements (compound, value_reported) VALUES
  ('Nc1nc[n+](Cc2ccccc2CCO)c2nc[nH]c12', '> 37.2 µM'),
  ('Oc1[nH]c(=S)[nH]c1/C=C1/C(c2ccccc2)=Nc2ccccc21', '> 200 µM'),
  ('CC(C)c1ccc2c(c1)CCC1C2(C)CCCC1(C)C(O)c1ccccc1 (configuration not stated)', '> 200 µM'),
  ('O=C1Nc2ccc(Cl)c(I)c2C1=O', '> 61.7 µM');

-- ask Which EC50 is reported for this compound? O=C(O)c1ccc2cc(O)ccc2c1
-- reply > 200 µM

-- ask Quick check: EC50 of CSC(SC)=C1C(=O)NN=C1C ?
-- reply > 200 µM

-- ask Entry O=C(NCCN1CCCCC1)c1ccc(Br)cc1 has what EC50?
-- reply > 200 µM

-- ask EC50 lookup needed for COc1ccc(C(=O)C(c2ccc(OC)cc2)C2(O)C(=O)Nc3c(Cl)cc(Cl)cc32)cc1 (configuration not stated) , thanks.
-- reply > 39.8 µM

-- ask Look at this compound and give its reported EC50. Cc1nc2cc(Nc3ccccc3C(=O)O)ccc2s1
-- reply > 631 µM

-- ask Can you share its EC50? I mean this compound: CC(C)(C)OC(=O)NNC(=O)C1Cc2ccccc2OC1=O (configuration not stated)
-- reply > 200 µM

-- ask Dear colleague, I am looking for the recorded EC50 of the following compound: CCc1n[nH]c(=O)n1NC(=O)c1ccccc1C(=O)O
-- reply > 200 µM

-- ask Consider the compound shown here: N#Cc1cccc(/C=C(/C(=O)c2ccccc2)c2ccccc2)c1 What is its recorded EC50?
-- reply > 17 µM

* * *

- Test system: CEM cells HIV-1 protection, formazan growth assay
- protocol-details: NCI AIDS Antiviral Assay
pEC50: −log10 of the molar value.
assay-endpoint: pEC50

INSERT INTO results (molecule, value_reported) VALUES
  ('COC(=O)C1(C)CCCC2(C)C1CCC1(O)C(O)C(C(C)C)=CCC21 (centres undefined)', '< 3.70'),
  ('COc1ccc(CC(COS(=O)(=O)c2ccc(C)cc2)NS(=O)(=O)c2ccc(C)cc2)cc1 (centres undefined)', '< 3.70');

Kindly consider the entry below.
-- ask # get_value(readout='pEC50', item= O=c1[nH]nc(-c2ccccc2)n1O )
-- reply < 3.70

* * *

- Tested on: CEM cells HIV-1 protection, formazan growth assay
- protocol-details: NCI AIDS Antiviral Assay
assay-endpoint: EC50

INSERT INTO assay_data (input_smiles, system_under_test, assay_endpoint, value_reported) VALUES
  ('COc1ccc(SSc2ccc(OC)cc2C(=O)O)c(C(=O)O)c1', 'CEM cells HIV-1 protection, formazan growth assay', 'EC50', '> 200 µM'),
  ('Cn1c(=O)c2[nH]cnc2n(CC(=O)O)c1=O', 'CEM cells HIV-1 protection, formazan growth assay', 'EC50', '> 1120 µM'),
  ('CC(=O)NNc1nc(C)c(C(/C=C/c2ccc3c(c2)OCO3)=N/NC(=O)c2ccncc2)s1', 'CEM cells HIV-1 protection, formazan growth assay', 'EC50', '> 50.1 µM'),
  ('CCOP(=O)(OCC)/C(=C\n1ccc(=O)[nH]c1=S)C(=O)OC', 'CEM cells HIV-1 protection, formazan growth assay', 'EC50', '> 200 µM');

With those in mind, consider the next compound.
-- ask Please give the measured EC50 for this compound: N#Cc1c(N)c2c(c(-c3ccccc3)c1-c1ccccc1)C(=O)N(O)C2=O
-- reply > 200 µM

* * *

- Tested on: CEM cells HIV-1 protection, formazan growth assay
- protocol-details: NCI AIDS Antiviral Assay
- assay-setup: measured here: growth of uninfected CEM cells
- Protocol: The ability of compounds to protect human CEM cells from HIV-1 infection is measured as a screen for new compounds capable of inhibiting the HIV virus. Five concentrations of drug were tested on uninfected and infected cells and cell growth was measured using a soluble formazan assay. […] Compounds that provided at least 50% protection were retested. Compounds that provided at least 50% protection on retest were listed as moderately active. […]
Measured IC50, listed per entry.
Numeric answer only, unit µM assumed.

Known IC50 results, listed for orientation:
INSERT INTO measurements (compound, system_under_test, value_reported) VALUES
  ('Cc1ccc(C(=O)C2C=C(c3ccc(C)cc3)SC3C=CCC32)cc1 (stereo unspecified)', 'CEM cells HIV-1 protection, formazan growth assay', 14.8),
  ('CCOC(=O)C1(C/C=C/CCl)CCCC1=O (stereo unspecified)', 'CEM cells HIV-1 protection, formazan growth assay', 10);

-- ask For COc1cc2c(cc1O)CC[C@@H]1C2CC[C@@]2(C)C1CC[C@@H]2O (stereo partly specified) , what is its reported IC50?
-- reply 0.331

* * *

- System: CEM cells HIV-1 protection, formazan growth assay
- protocol-details: NCI AIDS Antiviral Assay;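 active means compounds giving half or more protection of infected cells from virus-caused growth loss, again on retest; inactive means the rest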
Pick from active, inactive when you respond.

INSERT INTO results (compound, classification) VALUES
  ('Cc1ccc(S(=O)(=O)N2CCC[C@@H]2C(=O)O[C@@H]2CCC3CC=CC32)cc1 (stereo not given in full)', 'inactive'),
  ('Nc1nc2c(ncn2C2CCC(CO)O2)c(=O)n1C(=O)c1ccccc1 (stereo not given)', 'active'),
  ('COc1ccc(OC)c(C(=O)/C=C\C(=O)O)c1', 'inactive');

-- ask Name the outcome recorded for COc1ccc2c(c1)nc1n2C(N)=Nc2ccccc2S1 in the assay.
-- reply inactive

-- ask Returns: the outcome recorded for Cc1cc(C)nc(NS(=O)(=O)c2ccc(NNc3c4ccccc4nc4c(C(=O)Nc5ccc(S(=O)(=O)N=C(N)N)cc5)cccc34)cc2)n1 in this assay.
-- reply inactive

* * *

Measured pIC50 of individual entries
- Test system: CEM cells HIV-1 protection, formazan growth assay
- protocol-details: NCI AIDS Antiviral Assay
- assay-setup: measured here: growth of uninfected CEM cells
pIC50: −log10 of the molar value.

INSERT INTO measurements (molecule, value_reported) VALUES
  ('CCN(CC)CC(C)Nc1cc(C)nc2c1ccc1c2ccc2c(NC(C)CN(CC)CC)cc(C)nc21 (stereo unspecified)', 3.63);

-- ask Which value of pIC50 has been reported for Cn1c(=O)c2nc3c(=O)n(C)c(=O)n(CC(N)=O)c3nc2n(C)c1=O in the records?
-- reply < 3.70

-- ask Data request, read-out pIC50, for CC(=O)N(C)C(c1ccccc1)(c1ccccc1)c1ccccc1
-- reply 4.45

-- ask State the recorded pIC50 for this entry: N#Cc1c2nc3ccccc3nc2n2ccccc12
-- reply < 4.39

-- ask For COc1ccc(NC(=S)Nc2c(C)n(C)n(-c3ccccc3)c2=O)cc1 , what is its reported pIC50?
-- reply < 3.70

* * *

- Test system: CEM cells HIV-1 protection, formazan growth assay
- protocol-details: NCI AIDS Antiviral Assay
- assay-setup: measured here: growth of uninfected CEM cells
Measured IC50 values are reported for all entries that follow.

INSERT INTO measurements (compound, value_reported) VALUES
  ('O=[N+]([O-])/C(C(Cl)=C(Cl)Cl)=C(/Nc1ccccc1)SCc1ccccc1', '38 µM'),
  ('O=[N+]([O-])c1cccc2nsnc12', '23.4 µM'),
  ('Cc1ccc(C)c(NC(=O)/C(=N\NC(N)=S)C(C#N)c2ccccc2)c1 (stereo unspecified)', '> 19.5 µM');

-- ask # get_value(readout='IC50', item= Oc1c(C2=N[C@H]3CCCC[C@@H]3N2)ccc2ccccc12 )
-- reply > 200 µM

-- ask Value lookup for IC50; key = O=C1Cn2c(cc(=O)c3ccccc32)O1
-- reply > 67.6 µM

-- ask Which IC50 is listed for O=S1(=O)CC2C3CC(Oc4ccccc4)C(C3)C2C1 (stereo unspecified) ?
-- reply > 107 µM
